Test system: PfAP2-G AP2 domain (GST-tagged)
Test: gcPBM binding intensity (ln(normalized median fluorescence intensity)); higher = stronger DNA binding
In all, about 25,000 sequences were measured (“ln(normalized median fluorescence intensity)”: median about 10, highest 2% from about 12 on). Only a selection was taken, and the highest values are over-represented in it overall.
Hi there, I'd appreciate the recorded gcPBM binding intensity (ln) for every entry that follows.
Output spec: single numeric token, no unit.

Reported gcPBM binding intensity (ln) for TTTATTATTTTTAGGAGTACACAAAATAAAACAAAT [XGTACX_site8841] : what is it?
11.6

Recorded gcPBM binding intensity (ln) for ATTTATTTCAATAAACTTCTTTTCTTTAACAATTAC [CACACA_negctrl_site1222] , please?
9.85

Which measured gcPBM binding intensity (ln) value corresponds to GAAAGAATAAAATTTACACACATATATATATACATA [CACACA_site2250] ?
9.74

Consider the sequence shown here: TATAAAATATAAATTTGTACATATAAAATATTTTAT [XGTACX_site7462] What is its recorded gcPBM binding intensity (ln)?
10.8

Endpoint output: gcPBM binding intensity (ln) of TAACATAAATTTAGGAGTACACTTTTTATACATACA [XGTACX_site4066] . Value?
11.7

----------
Test system: PfAP2-G AP2 domain (GST-tagged)
Test: gcPBM binding intensity (ln(normalized median fluorescence intensity)); higher = stronger DNA binding
The full ranking holds about 25,000 sequences; the median of “ln(normalized median fluorescence intensity)” is about 10, and the highest 2% start at about 12. This is one part of a sample in which the highest values are shown more often than they occur.
Measured attribute: gcPBM binding intensity (ln)
Number only, please.

Report gcPBM binding intensity (ln) for CTTTAACCATATATGTGTACGTATTTTATTCATATT [XGTACX_site6212] tested on PfAP2-G AP2 domain (GST-tagged).
11.8

What gcPBM binding intensity (ln) appears in the records for this sequence with PfAP2-G AP2 domain (GST-tagged)? TCTATTAATTAATATACACACATTAGATATAAATAT [CACACA_site7241]
9.95

Which measured gcPBM binding intensity (ln) belongs to TTCTTATTTTATATTTCACACATTTTTACTATACTT [CACACA_site5817] , tested on PfAP2-G AP2 domain (GST-tagged)?
10.1

# query: gcPBM binding intensity (ln) | item AAACGTGCGTATATGTGTACGCATATATATATATAT [XGTACX_site5252] | system: PfAP2-G AP2 domain (GST-tagged)
11.6

API: value(readout=gcPBM binding intensity (ln), system=PfAP2-G AP2 domain (GST-tagged)) for record TATATATATATATATTGTACATATATTATTATATAT [XGTACX_site7447]
10.9

Observed gcPBM binding intensity (ln) on PfAP2-G AP2 domain (GST-tagged) for AAAGAAAAAAAAAAAAGTACATAAATATAAAAAGAA [XGTACX_site6753] , please.
11.5

Missing value: gcPBM binding intensity (ln), PfAP2-G AP2 domain (GST-tagged), entry ATACATATACACATATGTACATATGAAAAGAAAAAT [XGTACX_site6445] . Fill in?
11.1

Value wanted: gcPBM binding intensity (ln) (PfAP2-G AP2 domain (GST-tagged)) of entry ATTCCAAAAAAATCAAGTACTAATTTATTATATTAC [XGTACX_site3920]
10.9

Provide value of gcPBM binding intensity (ln) for this record tested with PfAP2-G AP2 domain (GST-tagged): AAATAAAGAAATATATGTACATATATATATATATAT [XGTACX_site5131]
11.3

Provide the documented gcPBM binding intensity (ln) with PfAP2-G AP2 domain (GST-tagged) as the system for AAAAAAATAAAATATATATATATATATATATATATA [GTGCAC_negctrl_site706]
9.96

Identify the measured gcPBM binding intensity (ln) of AAGGAACTATAATATACACACATAAGTGTACTTATA [CACACA_site7816] for PfAP2-G AP2 domain (GST-tagged).
11.5

Find the measured gcPBM binding intensity (ln): item AGAAAAAAAAAAAGTACACACATATAATATATATAT [CACACA_site2973] , target or system PfAP2-G AP2 domain (GST-tagged).
11.6

What value of gcPBM binding intensity (ln) on PfAP2-G AP2 domain (GST-tagged) does ATTTATATATATGTATGTACGTATGTGTGTATATGT [XGTACX_site7587] have?
11.4

Give recorded gcPBM binding intensity (ln) with PfAP2-G AP2 domain (GST-tagged) for the following sequence: ATAGCCAAAAATCATGCACACCTAAAAAAAAAAAAA [CACACA_site8826]
10.1

Param readout = gcPBM binding intensity (ln); param system = PfAP2-G AP2 domain (GST-tagged); param query = ATAATTAACAAATACACACACACACGCCCACAAAAA [CACACA_site6389] ; response: value
10.9

Record lookup: for PfAP2-G AP2 domain (GST-tagged), what gcPBM binding intensity (ln) belongs to ATATGTATATTTTTTTGTACGTATTTATGTGTGTGT [XGTACX_site2093] ?
11.4

Can you look up gcPBM binding intensity (ln) on PfAP2-G AP2 domain (GST-tagged) for CGCATGCAATGTTAATGTACATATATATATATATGT [XGTACX_site3316] ?
11.7

Can you look up gcPBM binding intensity (ln) on PfAP2-G AP2 domain (GST-tagged) for TGAAATAAAATTTGTACACACATATTTATTTATATA [CACACA_site6421] ?
11.2

# returns recorded gcPBM binding intensity (ln) (system: PfAP2-G AP2 domain (GST-tagged)) for ATATATATATATATATGTACATATGTTAATCTGCAT [XGTACX_site1068]
11.2

----------
System: PfAP2-G AP2 domain (GST-tagged)
Assay: gcPBM binding intensity (ln(normalized median fluorescence intensity)); higher = stronger DNA binding
In all, about 25,000 sequences were measured (“ln(normalized median fluorescence intensity)”: median about 10, highest 2% from about 12 on). The sample as a whole holds a higher share of the highest values than the screen did.
Field: gcPBM binding intensity (ln). Provide a value for each of the sequences that follow.
I only need the number, thanks.

Write down the reported gcPBM binding intensity (ln) of ATACGCACACATATATGTACATATTGTATATATATA [XGTACX_site3962] , test system: PfAP2-G AP2 domain (GST-tagged).
11.2

Form field: gcPBM binding intensity (ln) recorded for TTTATTTTTCATTGGGGTACACAAGTTTATTTTATT [XGTACX_site4263] with PfAP2-G AP2 domain (GST-tagged) (enter value)
11.7

Under PfAP2-G AP2 domain (GST-tagged): gcPBM binding intensity (ln) value of TTTATTTTTCATTGGGGTACACAAGTTTATTTTTGA [XGTACX_site4262] ?
11.7

PfAP2-G AP2 domain (GST-tagged) / gcPBM binding intensity (ln) / CATATTTTCTTGTGTACACATTTATTTTATACTATA [CACACA_site6032] : value?
11.7

Any idea what gcPBM binding intensity (ln) came out for TTTTTTTTTTTTATTTGTACACATTTTCATATTTTT [XGTACX_site4406] on PfAP2-G AP2 domain (GST-tagged)?
11.3

Short answer please: gcPBM binding intensity (ln), PfAP2-G AP2 domain (GST-tagged), entry TTTATACTTTCAAAATGTACATATATATATATATAT [XGTACX_site6241]
11.1

Provide value of gcPBM binding intensity (ln) for this record tested with PfAP2-G AP2 domain (GST-tagged): AATATATATGAAAAAAGTACTCAAGGAATAAAAAAA [XGTACX_site7720]
11.3

Find the measured gcPBM binding intensity (ln): item ATTTTATTAATTTGGTGTACTTAATTTATATTTTTC [XGTACX_site4947] , target or system PfAP2-G AP2 domain (GST-tagged).
11.6

# get_value(readout= gcPBM binding intensity (ln), system= PfAP2-G AP2 domain (GST-tagged)) for TTTTTTTTTTTTTTATGTACATATATATATTTTATT [XGTACX_site6915]
11.2

# returns recorded gcPBM binding intensity (ln) (system: PfAP2-G AP2 domain (GST-tagged)) for TATATATATATATATAGTACGCACACATAGTTGCAA [XGTACX_site5875]
11.1

Request body: readout gcPBM binding intensity (ln), system PfAP2-G AP2 domain (GST-tagged), query GTTTATTTTTTCATTTGTACACATAAATAAATATAT [XGTACX_site7752] . Return the value.
11.5

Could you share what gcPBM binding intensity (ln) was measured for TCATTTATTTTTCTTTGTACACAAAAGTTTTTATGT [XGTACX_site690] , tested on PfAP2-G AP2 domain (GST-tagged)?
11.4

# query: gcPBM binding intensity (ln) | item TATATTAAAAAAGAGGTGCATTCGTAAGAGGTTAAA [GTGCAC_site9720] | system: PfAP2-G AP2 domain (GST-tagged)
10.1

Fill in the recorded gcPBM binding intensity (ln) for this sequence, with PfAP2-G AP2 domain (GST-tagged) as test system: TTATTTTTTTATTCATGTACACAAGAACATTTCATT [XGTACX_site5744]
11.3

GET /values?readout=gcPBM binding intensity (ln)&system=PfAP2-G AP2 domain (GST-tagged)&item= TTCATCTTAAAATTGGGTACATAACACAAAGTATAA [XGTACX_site1894]
11.3

Lab note: need gcPBM binding intensity (ln) for ATATTAGAAATATGAATAGAAAGAATATATAAGTAT [CACACA_negctrl_site682] on PfAP2-G AP2 domain (GST-tagged), anyone have it?
9.76

Please state recorded gcPBM binding intensity (ln) (tested on PfAP2-G AP2 domain (GST-tagged)) of AATATGTAATAGTGTACACATATATCTGTATTTATG [CACACA_site4252]
11.6

Tell me reported gcPBM binding intensity (ln) for TTCTTTTTCCAATTTGCACACCACAAAATTATATAT [CACACA_site2909] , tested with PfAP2-G AP2 domain (GST-tagged).
10.5

gcPBM binding intensity (ln) of TATATCTGTTTATATTGTACACATATATATATATAT [XGTACX_site714] on PfAP2-G AP2 domain (GST-tagged)?
11.4
